Data provenance is ChEMBL document CHEMBL1145528.

# Tested on: Mus musculus
# ASSAY INFO: Anti-inflammatory activity against of FCA-induced odema in BALB/c mouse assessed as oedema inhibition at 0.30 mmol/kg, ip
# Assay type: functional
Items are presented alongside their recorded inhibition in vivo at 300 µmol/kg.
RESULT TYPE: inhibition in vivo at 300 µmol/kg (%)

MOLECULE | SYSTEM | VALUE MEASURED
CC(C)C(=O)N1CCC[C@@H]1C(=O)OCCCc1cccnc1 | Mus musculus | 1
COc1cc(C)ccc1OC(=O)[C@H]1CCCN1C(=O)C(C)C | Mus musculus | 1
CC(C)Cc1ccc(C(C)C(=O)O)cc1 (centres undefined) | Mus musculus | 53
COc1cc(C)ccc1OC(=O)C1CCCN1C(=O)C(C)c1ccc(CC(C)C)cc1 (centres undefined) | Mus musculus | 43

====

# SYSTEM: Acetylcholinesterase (Rattus norvegicus)
# ASSAY INFO: Inhibition of Fischer 344 rat brain acetylcholine esterase at 0.6 mM

COMPOUND | inhibition, %
CC(C)Cc1ccc(C(C)C(=O)N2CCCC2C(=O)OCCCc2cccnc2)cc1 (centres undefined) | 64
COc1cc(C)ccc1OC(=O)C1CCCN1C(=O)C(C)c1ccc(CC(C)C)cc1 (centres undefined) | 80
CC(C)Cc1ccc(C(C)C(=O)O)cc1 (centres undefined) | 20
CC(C)Cc1ccc([C@H](C)C(=O)O)cc1 | 20

====

# SYSTEM: Seed linoleate 13S-lipoxygenase-1 (Glycine max)
# Sequence (P08170 whole entry): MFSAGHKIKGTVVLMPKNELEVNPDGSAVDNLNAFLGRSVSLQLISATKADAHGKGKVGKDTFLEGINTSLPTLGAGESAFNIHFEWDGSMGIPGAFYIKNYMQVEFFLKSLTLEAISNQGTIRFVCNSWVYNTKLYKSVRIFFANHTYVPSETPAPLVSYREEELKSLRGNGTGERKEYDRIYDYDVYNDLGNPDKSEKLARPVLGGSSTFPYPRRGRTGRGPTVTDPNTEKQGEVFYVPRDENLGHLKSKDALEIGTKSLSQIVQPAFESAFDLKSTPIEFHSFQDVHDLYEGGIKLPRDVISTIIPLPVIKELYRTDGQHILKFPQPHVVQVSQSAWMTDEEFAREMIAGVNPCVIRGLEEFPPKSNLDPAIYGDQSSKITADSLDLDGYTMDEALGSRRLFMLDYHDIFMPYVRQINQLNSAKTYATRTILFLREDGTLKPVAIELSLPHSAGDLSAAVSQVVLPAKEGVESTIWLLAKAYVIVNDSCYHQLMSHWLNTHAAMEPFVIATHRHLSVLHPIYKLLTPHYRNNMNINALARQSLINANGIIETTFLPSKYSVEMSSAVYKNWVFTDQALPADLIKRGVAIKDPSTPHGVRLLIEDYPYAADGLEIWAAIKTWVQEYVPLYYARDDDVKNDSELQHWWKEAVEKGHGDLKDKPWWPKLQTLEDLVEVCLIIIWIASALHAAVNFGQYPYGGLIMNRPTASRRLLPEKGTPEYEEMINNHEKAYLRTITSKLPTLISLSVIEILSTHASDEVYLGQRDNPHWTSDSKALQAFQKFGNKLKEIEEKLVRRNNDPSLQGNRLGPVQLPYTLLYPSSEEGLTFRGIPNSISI
pIC50: −log10 of the molar value.

MOLECULE | SYSTEM | pIC50
COc1cc(C)ccc1OC(=O)C1CCCN1C(=O)C(C)c1ccc(CC(C)C)cc1 (stereo unspecified) | Seed linoleate 13S-lipoxygenase-1 (Glycine max) | 3.85
